The origin of these recorded values is paper PMC5220080.

- system_tested: human beta-cardiac myosin subfragment 1 (M2β-S1) (Homo sapiens)
- test_description: actin-activated ATPase (NADH-linked assay); also in vitro motility (IC50 […])
readout_type: pIC50
pIC50 field: float, defined as -log10 of concentration (mol/L).

Bench note: what pIC50 did "Cc1ccc2c(c1)C(=O)[C@]1(O)CCN(c3ccc([N+](=O)[O-])cc3)C1=N2" show?
4.91
